Values compiled from paper PMC7395068.

System: hLiMTs
Assay: Combined HCI (HCS) and cellular ATP 3D assay in hLiMTs
Settings: hLiMTs; ATP endpoint; cut-off <100x Avg Cmaxu
MEASUREMENT_TYPE: hLiMTs <100x Avg Cmaxu ATP

>  <COMPOUND>
CNC1(C)C2CCC(C2)C1(C)C (stereo not shown)

>  <ASSAY_TARGET>
hLiMTs

>  <hLiMTs <100x Avg Cmaxu ATP>
-ve

$$$$
>  <COMPOUND>
CN(C)CCCN1c2ccccc2Sc2ccc(Cl)cc21 [chlorpromazine, reference compound]

>  <ASSAY_TARGET>
hLiMTs

>  <hLiMTs <100x Avg Cmaxu ATP>
+ve (<100x Avg Cmaxu)

$$$$
>  <COMPOUND>
Clc1ccccc1CN1CCc2sccc2C1

>  <ASSAY_TARGET>
hLiMTs

>  <hLiMTs <100x Avg Cmaxu ATP>
+ve (<100x Avg Cmaxu)

$$$$
>  <COMPOUND>
CCc1ccc(CCOc2ccc(CC3SC(=O)NC3=O)cc2)nc1 (stereo not shown) [pioglitazone, reference compound]

>  <ASSAY_TARGET>
hLiMTs

>  <hLiMTs <100x Avg Cmaxu ATP>
-ve

$$$$
>  <COMPOUND>
Cc1cc2c(cc1CC(=O)c1sccc1S(=O)(=O)Nc1onc(C)c1Cl)OCO2

>  <ASSAY_TARGET>
hLiMTs

>  <hLiMTs <100x Avg Cmaxu ATP>
-ve

$$$$
>  <COMPOUND>
[H]/N=C(/N)N[C@H]1[C@H](O)[C@@H](O)[C@H](O[C@@H]2O[C@@H](C)[C@](O)(C=O)[C@H]2O[C@@H]2O[C@@H](CO)[C@H](O)[C@@H](O)[C@@H]2NC)[C@@H](N/C(N)=N\[H])[C@@H]1O [streptomycin, reference compound]

>  <ASSAY_TARGET>
hLiMTs

>  <hLiMTs <100x Avg Cmaxu ATP>
+ve (<100x Avg Cmaxu)

$$$$

Requested field: hLiMTs <100x Avg Cmaxu ATP. Item: O=C1CN(/N=C/c2ccc(-c3ccc([N+](=O)[O-])cc3)o2)C(O)=N1
-ve

---

Test system: hLiMTs
Experiment: Combined HCI (HCS) and cellular ATP 3D assay in hLiMTs
Conditions: hLiMTs; ATP endpoint; cut-off <25x Avg Cmax
MEASUREMENT_TYPE: hLiMTs <25x Avg Cmax ATP

>  <COMPOUND>
CCc1nn(CCCN2CCN(c3cccc(Cl)c3)CC2)c(=O)n1CCOc1ccccc1 [nefazodone, reference compound]

>  <ASSAY_TARGET>
hLiMTs

>  <RESULT>
+ve

$$$$
>  <COMPOUND>
COc1ccccc1Oc1c(NS(=O)(=O)c2ccc(C(C)(C)C)cc2)nc(-c2ncccn2)nc1OCCO [bosentan]

>  <ASSAY_TARGET>
hLiMTs

>  <RESULT>
+ve

$$$$
>  <COMPOUND>
CN(Cc1cnc2nc(N)nc(N)c2n1)c1ccc(C(=O)N[C@@H](CCC(=O)O)C(=O)O)cc1 [methotrexate, reference compound]

>  <ASSAY_TARGET>
hLiMTs

>  <RESULT>
-ve

$$$$
>  <COMPOUND>
O=C1CN(/N=C/c2ccc(-c3ccc([N+](=O)[O-])cc3)o2)C(O)=N1 [dantrolene]

>  <ASSAY_TARGET>
hLiMTs

>  <RESULT>
-ve

$$$$
